- system_name: T1, human TNFR1 on cells (HT1080, HeLa, Kym-1) (human, UniProt P19438 30-455)
- T1 sequence (looked up): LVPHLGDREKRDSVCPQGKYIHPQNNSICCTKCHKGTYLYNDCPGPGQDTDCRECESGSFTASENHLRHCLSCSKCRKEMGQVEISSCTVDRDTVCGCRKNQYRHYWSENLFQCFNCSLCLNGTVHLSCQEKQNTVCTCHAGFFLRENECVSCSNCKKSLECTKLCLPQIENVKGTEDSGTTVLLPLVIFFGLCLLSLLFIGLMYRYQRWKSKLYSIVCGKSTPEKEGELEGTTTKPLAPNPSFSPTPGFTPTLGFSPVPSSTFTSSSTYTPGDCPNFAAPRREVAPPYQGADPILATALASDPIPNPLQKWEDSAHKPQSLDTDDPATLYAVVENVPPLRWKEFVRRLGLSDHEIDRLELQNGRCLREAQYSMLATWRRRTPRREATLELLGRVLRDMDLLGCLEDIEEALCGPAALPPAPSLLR
- assay_info: cell-based or functional assay
measurement_name: IL-6 release (pg/ml), HeLa cells (pg/mL)
Number only, in pg/mL; omit the unit.

Some solved entries appear below for comparison.
binder	measurement_name	value_observed
FabATROSAB (Fab, V domains shown, Fab of ATROSAB; also called Fab fragment of ATROSAB; ATROSAB Fab) VH: QVQLVQSGAEVKKPGSSVKVSCKASGYTFTDFYINWVRQAPGQGLEWIGEIYPYSGHAYYNEKFKARVTITADKSTSTAYMELSSLRSEDTAVYYCARWDFLDYWGQGTTVTVSS VL: DIVMTQSPLSLPVTPGEPASISCRSSQSLLHSNGNTYLHWYLQKPGQSPQLLIYTVSNRFSGVPDRFSGSGSGTDFTLKISRVEAEDVGVYYCSQSTHVPYTFGGGTKVEIKR	IL-6 release (pg/ml), HeLa cells	179
ATROSAB (antibody, IgG1, V domains shown, Humanized full-length IgG1 with a modified Fc region deficient in mediating effector functions (made according to WO2012035141); also called full length IgG ATROSAB) VH: QVQLVQSGAEVKKPGSSVKVSCKASGYTFTDFYINWVRQAPGQGLEWIGEIYPYSGHAYYNEKFKARVTITADKSTSTAYMELSSLRSEDTAVYYCARWDFLDYWGQGTTVTVSS VL: DIVMTQSPLSLPVTPGEPASISCRSSQSLLHSNGNTYLHWYLQKPGQSPQLLIYTVSNRFSGVPDRFSGSGSGTDFTLKISRVEAEDVGVYYCSQSTHVPYTFGGGTKVEIKR	IL-6 release (pg/ml), HeLa cells	231

Here's the next entry for you.
Ask | Data request, read-out IL-6 release (pg/ml), HeLa cells, for Fab13.7 (Fab, V domains shown, also called Fab-FRK13.7; Fab3.7) VH: HVQLVQSGAEVKKPGSSVKVSCKASGYTFTDFYINWVRQAPGQGLEWIGEIVPSQGEAKYNDKFKARVTITADKSTSTAYMELSSLRSEDTAVYYCARWDFLDYWGQGTTVTVSS VL: DVQMTQSPSSLSASVGDRVTITCRSSQSLLHSNGNTYLHWYQQKPGKAPKLLIYTVSNRFSGVPSRFSGSGSGTDFTLTISSLQPEDFATYYCSQSTHVPYTFGGGTKVEIKR
Reply | 101
